Reference source for all entries: the METLIN SMRT retention time set (Domingo-Almenara et al. 2019)

# method_description: gradient 5% acetonitrile 3 min, to 50% in 2 min, to 85% in 15 min, held 3 min, 100 µL/min
# recorded_conditions: column: Zorbax Extend-C18 2.1 x 50 mm; eluents: water / acetonitrile, 0.1% formic acid
Listed compounds paired with reported RP-LC retention time
Lab book: enter the figure in s, no units written.

Past entries and their recorded results:
{"compound": "O=C(NC1CCCC1)c1ccc(CN2CCN(Cc3ccccc3)C(=O)C2=O)cc1", "assay_readout": "RP-LC retention time", "recorded_number": 734}
{"compound": "CCC(C(=O)NCCCN1CCCCC1)n1nc(C)c2sc3ccccc3c2c1=O (configuration not stated)", "assay_readout": "RP-LC retention time", "recorded_number": 691}
{"compound": "Cc1ccc(CN2N=C(C(=O)N3CCCC3)S(=O)(=O)c3ccccc32)cc1", "assay_readout": "RP-LC retention time", "recorded_number": 895}
{"compound": "CS(=O)(=O)N1CC[C@H]2CN(Cc3cn[nH]c3-c3ccccc3)C[C@@]2(CF)C1", "assay_readout": "RP-LC retention time", "recorded_number": 592}
{"compound": "CN1C(=O)Cc2ccccc2C1C(=O)NCc1cccc(F)c1 (configuration not stated)", "assay_readout": "RP-LC retention time", "recorded_number": 729}
{"compound": "CCN1CCN(c2cc(C)c3cc(NC(=S)NCc4cccs4)ccc3n2)CC1", "assay_readout": "RP-LC retention time", "recorded_number": 584}

Exercise: Entry `O=C(c1ccoc1)N1CCC2(CC1)N=C(c1ccc(Cl)cc1)NO2` : reported RP-LC retention time = ?
Key: 774

Exercise: // same read-out, input: `CCc1ccccc1NC(=O)Cc1c(C)n(C)c2nc(-c3ccccc3)nn2c1=O`
Key: 865

Exercise: // same read-out, input: `O=c1n(Cc2ccc(F)cc2)nc2c(S(=O)(=O)N3CCCCC3)cccn12`
Key: 887

====

# method_description: gradient 5% acetonitrile 3 min, to 50% in 2 min, to 85% in 15 min, held 3 min, 100 µL/min
# recorded_conditions: column: Zorbax Extend-C18 2.1 x 50 mm; eluents: water / acetonitrile, 0.1% formic acid
Listed molecules paired with reported RP-LC retention time
Lab book: enter the figure in s, no units written.

Past entries and their recorded results:
{"molecule": "COc1cccc(NC(=O)C2CCN(C(=O)C3CC(=O)N(c4ccccc4)C3)CC2)c1 (configuration not stated)", "unit_annotation": "s", "RP-LC retention time": 714}
{"molecule": "O=C(N[C@H]1C[C@@H]2C[C@H]1CN2C(=O)NCCc1ccccc1)c1cccs1", "unit_annotation": "s", "RP-LC retention time": 716}
{"molecule": "COCCN1C(=O)Cc2ccccc2C1C(=O)NCc1ccccc1F (configuration not stated)", "unit_annotation": "s", "RP-LC retention time": 732}
{"molecule": "COc1ccc(NC(=O)C2CCCN(c3cc(=O)n(C)c(=O)n3C)C2)cc1OC (configuration not stated)", "unit_annotation": "s", "RP-LC retention time": 637}
{"molecule": "CSc1ccc(NC(=O)c2cn3c(n2)CCCC3)cc1", "unit_annotation": "s", "RP-LC retention time": 624}

Exercise: Entry O=S(=O)(Cc1ccccc1)N1CCC(Cc2nc(-c3cccnc3)n[nH]2)C1 (configuration not stated) : reported RP-LC retention time = ?
Key: 628

Exercise: // same read-out, input: `Cn1c(C(=O)NCCCN2CCCCCC2)cc2c(-c3cccs3)nn(-c3ccccc3)c21`
Key: 795

====

# method_description: gradient 5% acetonitrile 3 min, to 50% in 2 min, to 85% in 15 min, held 3 min, 100 µL/min
# recorded_conditions: column: Zorbax Extend-C18 2.1 x 50 mm; eluents: water / acetonitrile, 0.1% formic acid
Kind request: treat 900 s as inclusive, so RP-LC retention time at 900 s or higher is 1, anything lower is -1.

{"compound": "CC(C)CC(=O)Nc1ccc(-n2cnc(C(=O)N3CCc4ccccc4C3)c2)nc1", "class_assignment": -1}
{"compound": "Cc1ccccc1CC(=O)N1CCc2cc(-c3ccno3)ccc21", "class_assignment": 1}
{"compound": "O=C(Cc1cccs1)N1CCCN(c2cc(-c3ccc4c(c3)OCO4)[nH]n2)CC1", "class_assignment": -1}
{"compound": "O=C(NC1CC1)c1ccc(OCC2CCCN2C(=O)c2c(F)cccc2F)cc1 (configuration not stated)", "class_assignment": -1}
{"compound": "O=C(CSc1nc(-c2ccccc2)c(-c2ccccc2)o1)NCCCO", "class_assignment": -1}
{"compound": "COc1ccc(-c2c(C)noc2NC(C)=O)cc1S(=O)(=O)N(C)c1ccc(C)cc1", "class_assignment": -1}
{"compound": "COc1cc(OC)cc(-c2nc(-c3ccc4ncn(C(C)C)c4c3)no2)c1", "class_assignment": -1}
{"compound": "O=[N+]([O-])c1ccc(-c2csc(N3CCOCC3)n2)cc1", "class_assignment": 1}
{"compound": "O=C(NC1CCc2nnc(C3CC3)n2CC1)c1cc(C2CC2)[nH]n1 (configuration not stated)", "class_assignment": -1}

Note: attention shifts to another entry.
Exercise: Entry `CC(C)c1ccc(-c2csc(NC(=O)c3cccc(Cl)c3)n2)cc1` : is its RP-LC retention time no less than 900 s?
Key: 1

====

# method_description: gradient 5% acetonitrile 3 min, to 50% in 2 min, to 85% in 15 min, held 3 min, 100 µL/min
# recorded_conditions: column: Zorbax Extend-C18 2.1 x 50 mm; eluents: water / acetonitrile, 0.1% formic acid
Listed compounds paired with reported RP-LC retention time
Lab book: enter the figure in s, no units written.

Past entries and their recorded results:
{"compound": "CC(C)c1noc(-c2cc(=O)n(CC(=O)NCc3ccc(Cl)cc3)c3ccccc23)n1", "recorded_number": 1020}
{"compound": "CC1=C(c2ccccc2)S(=O)(=O)N=C1N1CCCN(C(=O)c2ccc(F)cc2)CC1", "recorded_number": 805}
{"compound": "CCOc1ccc(NC(=O)C2CCN(S(=O)(=O)c3ccc4c(c3)CCCC(=O)N4)CC2)cc1", "recorded_number": 816}

Now consider the entry below.
Exercise: Entry CCCCC(=O)NC1(C(F)(F)F)C(=O)N(Cc2ccccc2)C(C)=C1C(=O)OC (centres undefined) : reported RP-LC retention time = ?
Key: 989

====

# method_description: gradient 5% acetonitrile 3 min, to 50% in 2 min, to 85% in 15 min, held 3 min, 100 µL/min
# recorded_conditions: column: Zorbax Extend-C18 2.1 x 50 mm; eluents: water / acetonitrile, 0.1% formic acid
Listed molecules paired with reported RP-LC retention time
Lab book: enter the figure in s, no units written.

Past entries and their recorded results:
{"molecule": "Cc1noc2nc(CCC(=O)NCc3ccc(Cl)cc3)nc(N3CCCC3)c12", "assay_readout": "RP-LC retention time", "recorded_number": 819}
{"molecule": "Cc1ccc(C)c(-c2csc(NC(=O)CCC(=O)O)n2)c1", "assay_readout": "RP-LC retention time", "recorded_number": 781}

Now consider the entry below.
Exercise: Entry CCC(CC)NC(=O)C1CC(=O)N(CCc2c[nH]c3ccc(Cl)cc23)C1 (stereo not drawn) : reported RP-LC retention time = ?
Key: 796

====

# method_description: gradient 5% acetonitrile 3 min, to 50% in 2 min, to 85% in 15 min, held 3 min, 100 µL/min
# recorded_conditions: column: Zorbax Extend-C18 2.1 x 50 mm; eluents: water / acetonitrile, 0.1% formic acid
Kind request: treat 800 s as inclusive, so RP-LC retention time at 800 s or higher is class 1, anything lower is class 0.

Please review the following examples before continuing.
{"test_smiles": "CCOC(=O)CNC(=O)N1CCN(Cc2nc3cccnc3n2-c2cccc(F)c2)CC1", "class_assignment": "class 0"}
{"test_smiles": "CCc1sc(NC(=O)Cn2nc3c(cc2=O)CCCC3)nc1C(=O)OC", "class_assignment": "class 0"}
{"test_smiles": "O=C(Nc1cccc(C(F)(F)F)c1)N1CCN(c2ccc(Nc3cccnc3)nn2)CC1", "class_assignment": "class 0"}
{"test_smiles": "CCCCc1ccc(NC(=O)CSc2cc(N3CCC(C(=O)NCC)CC3)ncn2)cc1", "class_assignment": "class 1"}
{"test_smiles": "CCOc1ccccc1-c1noc(-c2nc(C)no2)n1", "class_assignment": "class 1"}

Note: attention shifts to another entry.
Exercise: Entry `Cc1ccc(CN2CCN(CC(=O)Nc3cccc(C(F)(F)F)c3)C(=O)C2=O)cc1` : is its RP-LC retention time no less than 800 s?
Key: class 1

====

# method_description: gradient 5% acetonitrile 3 min, to 50% in 2 min, to 85% in 15 min, held 3 min, 100 µL/min
# recorded_conditions: column: Zorbax Extend-C18 2.1 x 50 mm; eluents: water / acetonitrile, 0.1% formic acid
Listed compounds paired with reported RP-LC retention time
# include the unit after the value

{"compound": "Cc1csc(-c2cc(S(=O)(=O)NC(C)C)cn2CC(=O)N2CCCCC2)n1", "result": "873 s"}

Now consider the entry below.
Exercise: Entry `CCN1C(=O)c2cccnc2Sc2cc(NC(=O)COC)ccc21` : reported RP-LC retention time = ?
Key: 655 s
